test parameters: 298.15 K; 101.33 kPa; Liquid
readout type: mass density (kg/m3)

>>> value_measured("OCCCCO")
1012.57
>>> value_measured("CCC(O)CO (stereo unspecified)")
998.86
>>> value_measured("CC(O)C(C)O (stereo unspecified)")
998.57
>>> value_measured("CC(O)CCO (stereo unspecified)")
1000.03
>>> value_measured("OCCCO")
1049.99
>>> value_measured("CC(O)CO (stereo unspecified)")
1032.77

====

Items are presented alongside their recorded refractive index.
assay details: refractive index (Na D-line) (dimensionless)
test parameters: 298.15 K; 101.33 kPa; Liquid; Standard Abbe refractometry
readout type: refractive index

>>> value_measured("OCCCCO")
1.4442
>>> value_measured("CC(O)C(C)O (configuration not stated)")
1.4366
>>> value_measured("CCC(O)CO (configuration not stated)")
1.4374
>>> value_measured("O")
1.3323
>>> value_measured("OCCCO")
1.4386
>>> value_measured("CC(O)CCO (configuration not stated)")
1.439
>>> value_measured("CC(O)CO (configuration not stated)")
1.4314
